Tested on: H358
Assay: AG-205 viability assay in H358 cells
Type: cell-based
Conditions: H358, lung, serum-starved, EGFR wild-type
quantity: IC50 (µM)
// units = µM; emit number, no label

Ask: Can you look up the measured IC50 of Cc1ccc2c(c1)[C@H]1CN(C)CC[C@H]1N2C(=O)CSc1nnnn1-c1ccc(Cl)cc1 for me?
Result: 12

###

System: H1650
Test: AG-205 viability assay in H1650 cells
Assay type: cell-based
Conditions: H1650, lung, serum-starved, EGFR ΔE746-A750
quantity: IC50

Ask: Entry under review: Cc1ccc2c(c1)[C@H]1CN(C)CC[C@H]1N2C(=O)CSc1nnnn1-c1ccc(Cl)cc1 . Reported IC50?
Result: > 100 µM

FYI, the data here is from patent US9724337B2.
